target-of-assay: HLA-A*68:01
method-summary: IEDB peptide-MHC binding, purified MHC/competitive/radioactivity; filed as Kd, often an IC50 or EC50 that approximates it; bounds were set here for any values at or beyond the usual limits of such assays
measurement-context: source organism: Mammarenavirus guanaritoense
result-type: pKd
The quantity pKd is defined as the negative base-10 logarithm of the molar concentration.

Query :: # query: pKd of entry ACNKIKGKK
Result :: 6.00

Query :: Moving on to the next sequence: TRFWYINHTK
Result :: 7.03

Query :: Moving on to the next sequence: SYSKMSVVMR
Result :: 6.88

###

target-of-assay: HLA-A*68:02
method-summary: IEDB peptide-MHC binding, purified MHC/competitive/radioactivity; filed as Kd, often an IC50 or EC50 that approximates it; bounds were set here for any values at or beyond the usual limits of such assays
measurement-context: source organism: Dengue virus 4 Philippines/H241/1956
Would you mind telling me the reported pKd of each entry?
The quantity pKd is defined as the negative base-10 logarithm of the molar concentration.

Query :: # query: pKd of entry TIMAVLFVV
Result :: 7.36

Query :: Moving on to the next sequence: TTANWLWAL
Result :: 8.20

###

target-of-assay: HLA-A*03:01
method-summary: IEDB peptide-MHC binding, purified MHC/competitive/radioactivity; filed as Kd, often an IC50 or EC50 that approximates it; bounds were set here for any values at or beyond the usual limits of such assays
measurement-context: source organism: Dengue virus 3 Martinique/1243/1999
result-type: Kd (nM)
API: value field is a number in nM; no unit string.

Query :: # query: Kd of entry YLALIATFK
Result :: 4.7

Query :: Moving on to the next sequence: LLALNDMGK
Result :: 294

Query :: Moving on to the next sequence: ITANPVVTK
Result :: 18.1

Query :: Moving on to the next sequence: AMLFLISGK
Result :: 185

###

target-of-assay: HLA-A*31:01
method-summary: IEDB peptide-MHC binding, purified MHC/direct/fluorescence; filed as Kd, often an IC50 or EC50 that approximates it; bounds were set here for any values at or beyond the usual limits of such assays
measurement-context: source organism: SARS-CoV1
result-type: Kd (nM)
API: value field is a number in nM; no unit string.

Query :: Enter reported Kd observed with HLA-A*31:01 for FMGRIRSVY
Result :: 123

###

target-of-assay: HLA-B*15:42
method-summary: IEDB peptide-MHC binding, purified MHC/competitive/fluorescence; filed as Kd, often an IC50 or EC50 that approximates it; bounds were set here for any values at or beyond the usual limits of such assays
measurement-context: source organism: Cryptosporidium parvum Iowa II
result-type: Kd (µM)
API: value field is a number in µM; no unit string.

Query :: # query: Kd of entry RIYKRSLKL
Result :: 2.19

###

target-of-assay: HLA-A*01:01
method-summary: IEDB peptide-MHC binding, purified MHC/competitive/fluorescence; bounds were set here for any values at or beyond the usual limits of such assays
measurement-context: source organism: Zaire ebolavirus
pIC50: −log10 of the molar value.
result-type: pIC50

Query :: # query: pIC50 of entry SSDPGTNTT
Result :: ≤ 3.79

###

target-of-assay: HLA-A*24:02
method-summary: IEDB peptide-MHC binding, purified MHC/competitive/fluorescence; bounds were set here for any values at or beyond the usual limits of such assays
measurement-context: source organism: Ateles geoffroyi
pIC50: −log10 of the molar value.
result-type: pIC50

Query :: # query: pIC50 of entry LPADPASVL
Result :: ≤ 4.70
